From: ChEMBL document CHEMBL1136570

measuredTarget: Sodium-dependent serotonin transporter (Rattus norvegicus)
pKi: −log10 of the molar value.

{"compoundString": "C[C@H](O)CN1CCN(CCOC(c2ccc(F)cc2)c2ccc(F)cc2)CC1", "pKi": 6.01}
{"compoundString": "C[C@@](O)(CN1CCN(CCOC(c2ccc(F)cc2)c2ccc(F)cc2)CC1)c1ccccc1", "pKi": 6.55}
{"compoundString": "C[C@@H](O)[C@H](c1ccccc1)N1CCN(CCOC(c2ccc(F)cc2)c2ccc(F)cc2)CC1", "pKi": 6.25}
{"compoundString": "C[C@H](O)[C@@H](c1ccccc1)N1CCN(CCOC(c2ccc(F)cc2)c2ccc(F)cc2)CC1", "pKi": 6.23}
{"compoundString": "CCN1CCN(CCOC(c2ccc(F)cc2)c2ccc(F)cc2)CC1", "pKi": 5.68}

###

# Lookup of reported Ratio keyed by entry
measuredTarget: Monoamine transporters; serotonin & dopamine (Rattus norvegicus) (UniProt P31652+P23977)
Sequence (P23977 whole entry, looked up): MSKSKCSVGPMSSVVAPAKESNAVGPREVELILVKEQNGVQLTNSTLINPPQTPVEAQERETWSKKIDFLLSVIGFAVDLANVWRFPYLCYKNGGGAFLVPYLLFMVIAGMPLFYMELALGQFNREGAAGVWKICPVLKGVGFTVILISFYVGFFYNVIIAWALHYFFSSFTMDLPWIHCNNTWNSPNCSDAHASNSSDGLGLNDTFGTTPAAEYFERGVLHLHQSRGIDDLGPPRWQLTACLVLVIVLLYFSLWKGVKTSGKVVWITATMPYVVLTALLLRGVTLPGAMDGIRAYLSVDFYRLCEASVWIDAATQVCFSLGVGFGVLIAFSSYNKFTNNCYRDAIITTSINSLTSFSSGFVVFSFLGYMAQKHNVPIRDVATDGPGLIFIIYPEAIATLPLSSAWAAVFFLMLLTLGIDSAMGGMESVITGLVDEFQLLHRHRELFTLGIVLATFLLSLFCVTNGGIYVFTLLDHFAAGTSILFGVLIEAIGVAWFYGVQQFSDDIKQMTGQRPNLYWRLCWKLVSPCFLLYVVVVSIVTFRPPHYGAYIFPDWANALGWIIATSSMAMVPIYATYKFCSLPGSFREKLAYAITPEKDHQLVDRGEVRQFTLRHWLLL
Sequence (P31652 whole entry, looked up): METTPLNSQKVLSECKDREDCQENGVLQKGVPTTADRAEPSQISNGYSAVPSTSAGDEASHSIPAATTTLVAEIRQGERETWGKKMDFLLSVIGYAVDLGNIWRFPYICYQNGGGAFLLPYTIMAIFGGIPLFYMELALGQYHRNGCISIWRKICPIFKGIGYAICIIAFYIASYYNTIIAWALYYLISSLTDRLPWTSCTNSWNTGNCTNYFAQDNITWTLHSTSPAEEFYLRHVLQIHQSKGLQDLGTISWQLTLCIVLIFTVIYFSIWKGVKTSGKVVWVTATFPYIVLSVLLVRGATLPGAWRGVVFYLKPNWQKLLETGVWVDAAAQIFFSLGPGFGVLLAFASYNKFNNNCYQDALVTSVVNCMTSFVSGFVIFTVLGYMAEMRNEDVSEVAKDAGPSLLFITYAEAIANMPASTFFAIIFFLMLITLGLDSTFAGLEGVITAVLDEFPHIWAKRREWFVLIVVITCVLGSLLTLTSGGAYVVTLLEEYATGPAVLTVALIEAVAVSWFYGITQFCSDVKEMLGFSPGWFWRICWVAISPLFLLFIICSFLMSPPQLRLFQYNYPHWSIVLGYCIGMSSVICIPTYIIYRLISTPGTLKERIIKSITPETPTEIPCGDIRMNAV
methodNotes: Selectivity expressed as ratio of affinity for SERT/DAT
Format: protein assay

{"compound": "CCN1CCN(CCOC(c2ccc(F)cc2)c2ccc(F)cc2)CC1", "Ratio": 61}
{"compound": "C[C@@H](O)CN1CCN(CCOC(c2ccccc2)c2ccccc2)CC1", "Ratio": 293}
{"compound": "C[C@@H](O)[C@H](c1ccccc1)N1CCN(CCOC(c2ccc(F)cc2)c2ccc(F)cc2)CC1", "Ratio": 43}
{"compound": "C[C@@](O)(CN1CCN(CCOC(c2ccc(F)cc2)c2ccc(F)cc2)CC1)c1ccccc1", "Ratio": 50}
{"compound": "O[C@H](Cc1ccccc1)CN1CCN(CCOC(c2ccccc2)c2ccccc2)CC1", "Ratio": 73}
{"compound": "C[C@@H](O)CN1CCN(CCOC(c2ccc(F)cc2)c2ccc(F)cc2)CC1", "Ratio": 8}
{"compound": "OC(Cc1ccccc1)CN1CCN(CCOC(c2ccc(F)cc2)c2ccc(F)cc2)CC1 (racemic)", "Ratio": 54}

###

Listing of recorded Ratio by entry.
measuredTarget: Monoamine transporters; serotonin & dopamine (Rattus norvegicus) (UniProt P31652+P23977)
methodNotes: Selectivity expressed as ratio of affinity for SERT/DAT
Format: protein assay

{"compound": "C[C@](O)(CN1CCN(CCOC(c2ccc(F)cc2)c2ccc(F)cc2)CC1)c1ccccc1", "Ratio": 4}
{"compound": "C[C@H](O)[C@@H](c1ccccc1)N1CCN(CCOC(c2ccc(F)cc2)c2ccc(F)cc2)CC1", "Ratio": 16}
{"compound": "C=CCN1CCN(CCOC(c2ccc(F)cc2)c2ccc(F)cc2)CC1", "Ratio": 25}
{"compound": "O[C@@H](Cc1ccccc1)CN1CCN(CCOC(c2ccc(F)cc2)c2ccc(F)cc2)CC1", "Ratio": 307}
{"compound": "O[C@H](Cc1ccccc1)CN1CCN(CCOC(c2ccc(F)cc2)c2ccc(F)cc2)CC1", "Ratio": 14}
{"compound": "CCCN1CCN(CCOC(c2ccc(F)cc2)c2ccc(F)cc2)CC1", "Ratio": 22}
{"compound": "O[C@@H](Cc1ccccc1)CN1CCN(CCOC(c2ccccc2)c2ccccc2)CC1", "Ratio": 939}
{"compound": "C[C@H](O)CN1CCN(CCOC(c2ccccc2)c2ccccc2)CC1", "Ratio": 217}
{"compound": "C[C@H](O)CN1CCN(CCOC(c2ccc(F)cc2)c2ccc(F)cc2)CC1", "Ratio": 43}
{"compound": "CC(O)(CN1CCN(CCOC(c2ccc(F)cc2)c2ccc(F)cc2)CC1)c1ccccc1 (racemic)", "Ratio": 15}

###

Listing of entries alongside the reported pKi.
measuredTarget: Sodium-dependent dopamine transporter (Rattus norvegicus, UniProt P23977)
Sequence (P23977 whole entry): as the sequence (P23977 whole entry, looked up) above
pKi: −log10 of the molar value.

{"molecule": "C[C@H](O)[C@@H](c1ccccc1)N1CCN(CCOC(c2ccc(F)cc2)c2ccc(F)cc2)CC1", "pKi": 7.44}
{"molecule": "C[C@@](O)(CN1CCN(CCOC(c2ccc(F)cc2)c2ccc(F)cc2)CC1)c1ccccc1", "pKi": 8.25}
{"molecule": "C[C@H](O)CN1CCN(CCOC(c2ccc(F)cc2)c2ccc(F)cc2)CC1", "pKi": 7.64}
{"molecule": "CC(O)(CN1CCN(CCOC(c2ccc(F)cc2)c2ccc(F)cc2)CC1)c1ccccc1 (racemic)", "pKi": 7.70}
{"molecule": "C[C@@H](O)[C@H](c1ccccc1)N1CCN(CCOC(c2ccc(F)cc2)c2ccc(F)cc2)CC1", "pKi": 7.89}
{"molecule": "C[C@@H](O)CN1CCN(CCOC(c2ccccc2)c2ccccc2)CC1", "pKi": 7.36}
{"molecule": "C[C@](O)(CN1CCN(CCOC(c2ccc(F)cc2)c2ccc(F)cc2)CC1)c1ccccc1", "pKi": 6.85}
{"molecule": "CCCN1CCN(CCOC(c2ccc(F)cc2)c2ccc(F)cc2)CC1", "pKi": 7.40}
{"molecule": "C=CCN1CCN(CCOC(c2ccc(F)cc2)c2ccc(F)cc2)CC1", "pKi": 7.19}

###

In this section we review reported Ki values for a set of molecules.
measuredTarget: Sodium-dependent dopamine transporter (Rattus norvegicus, UniProt P23977)
resultType: Ki (nM)

{"compoundString": "CCN1CCN(CCOC(c2ccc(F)cc2)c2ccc(F)cc2)CC1", "measuredTarget": "Sodium-dependent dopamine transporter (Rattus norvegicus, UniProt P23977)", "readoutValue": 34}
{"compoundString": "C[C@@H](O)CN1CCN(CCOC(c2ccc(F)cc2)c2ccc(F)cc2)CC1", "measuredTarget": "Sodium-dependent dopamine transporter (Rattus norvegicus, UniProt P23977)", "readoutValue": 76}
{"compoundString": "C[C@H](O)CN1CCN(CCOC(c2ccccc2)c2ccccc2)CC1", "measuredTarget": "Sodium-dependent dopamine transporter (Rattus norvegicus, UniProt P23977)", "readoutValue": 48}

###

measuredTarget: Sodium-dependent serotonin transporter (Rattus norvegicus, UniProt P31652)
Sequence (P31652 whole entry): as the sequence (P31652 whole entry, looked up) above
methodNotes: Binding affinity for serotonin transporter (SERT)
# Ki annotations

{"compound": "C[C@](O)(CN1CCN(CCOC(c2ccc(F)cc2)c2ccc(F)cc2)CC1)c1ccccc1", "uom": "nM", "Ki": 520}
{"compound": "C[C@H](O)CN1CCN(CCOC(c2ccccc2)c2ccccc2)CC1", "uom": "nM", "Ki": 10400}
{"compound": "C=CCN1CCN(CCOC(c2ccc(F)cc2)c2ccc(F)cc2)CC1", "uom": "nM", "Ki": 1650}
{"compound": "CC(O)(CN1CCN(CCOC(c2ccc(F)cc2)c2ccc(F)cc2)CC1)c1ccccc1 (racemic)", "uom": "nM", "Ki": 298}
{"compound": "C[C@@H](O)CN1CCN(CCOC(c2ccccc2)c2ccccc2)CC1", "uom": "nM", "Ki": 12900}
{"compound": "C[C@@H](O)CN1CCN(CCOC(c2ccc(F)cc2)c2ccc(F)cc2)CC1", "uom": "nM", "Ki": 588}
{"compound": "CCCN1CCN(CCOC(c2ccc(F)cc2)c2ccc(F)cc2)CC1", "uom": "nM", "Ki": 888}
